Data origin: paper PMC11547093

- test.details: pharmacokinetic study in ICR mice
- Assay type: in vivo
- test.context: male, mouse, plasma, oral 10 mg/kg
recorded.metric: Tmax (min)
Give the value, in units of min, as a plain number.

q: Can you look up the measured Tmax of Cc1ccc(-c2ccc(F)cc2NC(=O)c2ccc(OCC(=O)O)c(F)c2)cc1 [Compound 10f] for me?
a: 30

====

- test.system: human FFAR4 (Homo sapiens, UniProt Q5NUL3)
- Sequence (Q5NUL3 whole entry): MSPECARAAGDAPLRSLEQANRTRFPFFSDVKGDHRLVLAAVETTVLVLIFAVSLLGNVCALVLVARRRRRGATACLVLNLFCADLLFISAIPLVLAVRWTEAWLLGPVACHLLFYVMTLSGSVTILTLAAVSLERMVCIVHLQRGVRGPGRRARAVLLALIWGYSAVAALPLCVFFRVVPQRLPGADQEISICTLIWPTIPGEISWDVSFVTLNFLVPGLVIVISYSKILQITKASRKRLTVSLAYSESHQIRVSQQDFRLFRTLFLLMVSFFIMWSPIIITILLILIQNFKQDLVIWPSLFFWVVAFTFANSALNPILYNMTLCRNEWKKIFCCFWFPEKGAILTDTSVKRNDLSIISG
- test.details: cell-based
recorded.metric: pEC50
pEC50 is a log-scale quantity: -log10 of the concentration expressed in molar.

compound	pEC50
Cc1ccc(-c2ccc(F)cc2NC(=O)c2ccc(OCCCC(=O)O)c(C)c2)cc1 [Compound 5f]	6.95
Cc1ccc(-c2ccc(F)cc2NC(=O)c2ccc(OCCCC(=O)O)cc2)cc1 [Compound 2f]	6.72
Cc1ccc(-c2ccc(F)cc2NC(=O)c2ccc(OCCCCC(=O)O)c(F)c2)cc1 [Compound 12f]	6.90

q: Find the measured pEC50: item Cc1ccc(-c2ccc(F)cc2NC(=O)c2ccc(OCCCCC(=O)O)cc2C)cc1 [Compound 9f] , target or system human FFAR4 (Homo sapiens, UniProt Q5NUL3).
a: 6.56

q: Repeat for the following compound: Cc1ccc(-c2ccc(F)cc2NC(=O)c2ccc(OCCCCC(=O)O)c(C)c2)cc1 [Compound 6f]
a: 6.66

q: // next record Cc1ccc(-c2ccc(F)cc2NC(=O)c2ccc(OCC(=O)O)c(C)c2)cc1 [Compound 4f]
a: 6.84

q: Try Cc1ccc(-c2ccc(F)cc2NC(=O)c2ccc(OCC(=O)O)c(F)c2)cc1 [Compound 10f] next.
a: 7.10
